# measured-target: DNA repair and recombination protein RAD54-like (Homo sapiens)
# Sequence (Q92698 whole entry): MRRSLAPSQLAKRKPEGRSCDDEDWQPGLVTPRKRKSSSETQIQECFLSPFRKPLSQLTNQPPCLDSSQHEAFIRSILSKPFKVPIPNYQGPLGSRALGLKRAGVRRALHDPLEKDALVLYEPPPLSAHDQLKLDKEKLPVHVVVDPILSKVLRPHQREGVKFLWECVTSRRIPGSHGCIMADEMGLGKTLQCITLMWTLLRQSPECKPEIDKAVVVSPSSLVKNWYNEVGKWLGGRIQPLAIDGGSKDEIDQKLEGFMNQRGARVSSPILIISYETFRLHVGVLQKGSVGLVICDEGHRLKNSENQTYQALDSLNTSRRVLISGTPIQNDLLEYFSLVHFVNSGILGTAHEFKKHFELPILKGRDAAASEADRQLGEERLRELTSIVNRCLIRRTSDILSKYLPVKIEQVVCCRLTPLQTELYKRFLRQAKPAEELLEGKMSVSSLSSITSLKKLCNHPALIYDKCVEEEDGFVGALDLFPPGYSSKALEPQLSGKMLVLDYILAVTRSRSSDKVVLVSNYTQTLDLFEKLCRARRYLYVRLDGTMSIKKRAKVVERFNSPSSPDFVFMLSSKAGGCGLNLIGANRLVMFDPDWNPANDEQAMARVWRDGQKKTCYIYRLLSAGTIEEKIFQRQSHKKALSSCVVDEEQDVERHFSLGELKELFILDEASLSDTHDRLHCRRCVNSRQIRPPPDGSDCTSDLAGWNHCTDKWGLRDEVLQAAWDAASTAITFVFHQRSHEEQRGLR
# protocol-summary: inhibitors of human RAD54 branch migration, confirmation, biochemical, fluorescence, cherry-picked samples, dose series (AID 651657)
# Format: functional
Activity calls are given as the source filed them.
Lab note: assign the record to one of yes (1) for active, no (0) for inactive

>>> df
                                test_smiles  label_class
0  CCN1CCN(c2cc(C)c3cc(NC(=S)N4CCCCC4)ccc3n2)CC1       no (0)
1          c1ccc(CNc2c3ccccc3nc3ccccc23)cc1      yes (1)
2      CC(=O)Nc1ccc2cc3ccc(NC(C)=O)cc3nc2c1      yes (1)

Could you now consider this next molecule?
Input line: Per the records of this test, what outcome belongs to CCN(CC)CCNc1ccc(CO)c2oc3ccccc3c(=O)c12 ?
Output line: yes (1)

###

# measured-target: UniProtKB P41145
# Sequence (P41145 whole entry): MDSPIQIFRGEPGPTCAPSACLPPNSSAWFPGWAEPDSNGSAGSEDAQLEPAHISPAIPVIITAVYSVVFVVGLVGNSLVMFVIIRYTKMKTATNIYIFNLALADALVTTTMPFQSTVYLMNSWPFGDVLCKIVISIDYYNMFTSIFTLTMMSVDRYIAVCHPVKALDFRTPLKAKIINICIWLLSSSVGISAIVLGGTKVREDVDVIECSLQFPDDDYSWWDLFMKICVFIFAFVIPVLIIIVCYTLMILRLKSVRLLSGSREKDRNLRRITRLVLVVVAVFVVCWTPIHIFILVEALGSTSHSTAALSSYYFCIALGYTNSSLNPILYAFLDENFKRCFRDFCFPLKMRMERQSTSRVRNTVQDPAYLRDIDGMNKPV
# Assay type: functional
quantity: pIC50
A value of pIC50 is the negative decimal logarithm of a concentration given in moles per litre.

In [3]: df
Out[3]:
                                test_smiles  quantity  reported_measurement
0  N#CC(C#N)=C1C=CC=CN1/C(=C\c1ccco1)C(=O)c1ccc(Br)cc1     pIC50                  4.81

Here is the next item to consider.
Input line: For CCS(=O)(=O)c1ncc(Cl)c(C(=O)Nc2ccc(S(=O)(=O)N(C)c3ccccc3)cc2)n1 , write its pIC50.
Output line: 5.38

###

Reported EC50 is given for each of the following molecules.
# Test system: Streptococcus
# protocol-summary: Group A Streptococcus viability loss, dose response, counter-screen for streptokinase expression inhibitor project, luminescence, BacTiterGlo (AID 1915);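 also: potency for reduction of bacterial viability or growth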
# Type: functional, organism-based
The source made the active and inactive calls.

>>> print(df.to_string())
                                   molecule   reported_measurement
0  Cc1oc(-c2ccc(F)cc2)nc1CN(Cc1ccccn1)CC1CCCO1 (stereo not given)  > 150 µM (not active)
1  CC(=O)Nc1nc(NC(=O)/C=C/c2ccccc2)n(-c2ccccc2)n1       33.9 µM (active)
2        CCN(CC)c1ccc(NC(=O)c2c(C)noc2C)cc1  > 150 µM (not active)
3  Cc1cccc(/C=C2/SC(N/N=C3\CC4CCC3(C)C4(C)C)=NC2=O)c1 (stereo not given)        1.3 µM (active)

Input line: For Cc1cccc(OCC(=O)Nc2ccc(C(=O)Nc3ccccc3C(=O)O)cc2)c1C , write its EC50.
Output line: > 150 µM (not active)

Input line: For CCC[C@@H]1C[C@@]1(CCC)[C@@H](NP(=O)(c1ccccc1)c1ccccc1)c1ccc(C(=O)OC)cc1 , write its EC50.
Output line: 6.87 µM (active)

Input line: For CC(C)Cn1c(=O)c(C(=O)N/N=C/c2cccc(F)c2)c(O)c2ccccc21 , write its EC50.
Output line: 3.69 µM (active)

###

Reported IC50 is given for each of the following compounds.
# measured-target: Voltage-gated N-type calcium channel alpha-1B subunit/Amyloid beta A4 precursor protein-binding family A member 1 (Homo sapiens, UniProt Q00975+Q02410)
# Sequence (Q00975 whole entry): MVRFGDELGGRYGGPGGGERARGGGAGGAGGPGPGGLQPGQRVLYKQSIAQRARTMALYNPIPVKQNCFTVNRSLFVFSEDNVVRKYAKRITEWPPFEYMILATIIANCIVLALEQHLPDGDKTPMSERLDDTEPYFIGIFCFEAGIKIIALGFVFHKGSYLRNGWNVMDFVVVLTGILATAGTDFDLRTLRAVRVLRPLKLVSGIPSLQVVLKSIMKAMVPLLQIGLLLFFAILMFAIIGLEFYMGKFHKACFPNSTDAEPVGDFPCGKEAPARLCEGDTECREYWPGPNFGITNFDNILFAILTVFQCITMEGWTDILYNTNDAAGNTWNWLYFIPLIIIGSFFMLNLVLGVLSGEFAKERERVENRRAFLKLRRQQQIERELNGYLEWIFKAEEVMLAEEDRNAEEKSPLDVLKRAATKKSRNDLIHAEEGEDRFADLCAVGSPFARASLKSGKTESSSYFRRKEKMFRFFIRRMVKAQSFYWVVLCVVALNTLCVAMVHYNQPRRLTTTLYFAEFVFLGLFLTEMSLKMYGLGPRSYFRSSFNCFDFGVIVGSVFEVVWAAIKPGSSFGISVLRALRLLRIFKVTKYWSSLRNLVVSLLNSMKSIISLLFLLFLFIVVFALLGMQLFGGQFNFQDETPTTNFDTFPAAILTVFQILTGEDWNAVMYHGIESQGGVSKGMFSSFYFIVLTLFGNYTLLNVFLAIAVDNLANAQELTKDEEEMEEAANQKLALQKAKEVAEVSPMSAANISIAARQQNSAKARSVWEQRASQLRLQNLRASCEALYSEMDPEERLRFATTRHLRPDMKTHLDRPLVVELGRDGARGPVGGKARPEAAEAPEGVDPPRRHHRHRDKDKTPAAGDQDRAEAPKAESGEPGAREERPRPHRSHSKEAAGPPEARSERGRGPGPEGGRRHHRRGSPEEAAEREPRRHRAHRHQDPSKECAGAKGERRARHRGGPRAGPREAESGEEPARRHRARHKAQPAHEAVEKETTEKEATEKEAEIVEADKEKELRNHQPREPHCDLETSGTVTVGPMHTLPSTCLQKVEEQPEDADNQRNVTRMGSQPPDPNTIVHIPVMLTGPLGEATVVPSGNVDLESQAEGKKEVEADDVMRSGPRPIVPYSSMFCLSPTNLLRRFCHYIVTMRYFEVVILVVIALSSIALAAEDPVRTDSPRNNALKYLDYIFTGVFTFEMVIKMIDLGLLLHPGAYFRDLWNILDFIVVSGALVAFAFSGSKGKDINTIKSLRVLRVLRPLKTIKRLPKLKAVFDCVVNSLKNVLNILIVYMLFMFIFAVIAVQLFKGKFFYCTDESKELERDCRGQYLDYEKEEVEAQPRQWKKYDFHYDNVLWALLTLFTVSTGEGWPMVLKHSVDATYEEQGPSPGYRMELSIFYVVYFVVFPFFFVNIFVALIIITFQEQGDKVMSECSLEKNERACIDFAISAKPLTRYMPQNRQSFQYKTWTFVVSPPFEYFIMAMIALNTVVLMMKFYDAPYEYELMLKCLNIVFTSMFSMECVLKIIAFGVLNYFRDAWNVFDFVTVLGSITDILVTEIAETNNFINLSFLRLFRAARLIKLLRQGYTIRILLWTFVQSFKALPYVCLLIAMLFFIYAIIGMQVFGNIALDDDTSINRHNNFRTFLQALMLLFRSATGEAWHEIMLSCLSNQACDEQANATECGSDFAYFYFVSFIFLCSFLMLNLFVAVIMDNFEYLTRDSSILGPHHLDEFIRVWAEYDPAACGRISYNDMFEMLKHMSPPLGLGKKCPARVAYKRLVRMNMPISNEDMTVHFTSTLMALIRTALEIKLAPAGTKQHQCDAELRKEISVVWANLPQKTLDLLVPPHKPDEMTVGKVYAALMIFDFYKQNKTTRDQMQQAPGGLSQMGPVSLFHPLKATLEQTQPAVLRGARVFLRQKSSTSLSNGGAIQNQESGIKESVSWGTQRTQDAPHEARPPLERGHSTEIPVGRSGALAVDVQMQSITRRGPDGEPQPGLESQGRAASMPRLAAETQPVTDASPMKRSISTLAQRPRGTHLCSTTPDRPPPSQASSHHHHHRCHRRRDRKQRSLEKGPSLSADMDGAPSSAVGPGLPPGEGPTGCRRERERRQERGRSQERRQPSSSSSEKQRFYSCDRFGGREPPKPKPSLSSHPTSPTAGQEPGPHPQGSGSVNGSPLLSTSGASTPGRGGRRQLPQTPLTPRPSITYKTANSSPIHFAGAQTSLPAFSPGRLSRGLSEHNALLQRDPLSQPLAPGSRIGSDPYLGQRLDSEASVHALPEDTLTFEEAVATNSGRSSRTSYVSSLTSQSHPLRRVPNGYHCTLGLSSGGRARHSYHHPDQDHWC
# Sequence (Q02410 whole entry): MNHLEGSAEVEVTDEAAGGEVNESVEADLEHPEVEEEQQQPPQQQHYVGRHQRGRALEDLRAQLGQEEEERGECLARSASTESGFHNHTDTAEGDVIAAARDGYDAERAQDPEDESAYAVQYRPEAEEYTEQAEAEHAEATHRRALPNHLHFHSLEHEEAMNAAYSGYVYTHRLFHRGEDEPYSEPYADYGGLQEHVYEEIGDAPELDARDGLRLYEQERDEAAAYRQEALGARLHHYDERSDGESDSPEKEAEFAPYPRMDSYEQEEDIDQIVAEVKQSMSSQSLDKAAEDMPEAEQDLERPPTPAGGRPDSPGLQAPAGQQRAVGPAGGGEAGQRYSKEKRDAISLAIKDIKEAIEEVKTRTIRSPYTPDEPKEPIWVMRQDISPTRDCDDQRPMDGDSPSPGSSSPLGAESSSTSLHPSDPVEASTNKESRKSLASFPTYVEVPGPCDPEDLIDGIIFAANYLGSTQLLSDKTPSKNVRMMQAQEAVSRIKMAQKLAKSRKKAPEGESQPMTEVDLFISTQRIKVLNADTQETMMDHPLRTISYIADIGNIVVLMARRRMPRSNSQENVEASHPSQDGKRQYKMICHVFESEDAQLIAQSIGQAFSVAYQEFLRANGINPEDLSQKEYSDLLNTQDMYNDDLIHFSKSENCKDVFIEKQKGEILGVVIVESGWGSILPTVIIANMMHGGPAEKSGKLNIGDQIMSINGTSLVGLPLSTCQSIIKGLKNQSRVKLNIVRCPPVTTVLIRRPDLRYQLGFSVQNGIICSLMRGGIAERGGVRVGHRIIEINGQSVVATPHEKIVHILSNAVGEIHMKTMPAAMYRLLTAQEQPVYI
# Assay type: protein assay
The source made the active and inactive calls.

Sample answers from the record:
>>> df
                                   compound  quantity  reported_measurement
0    CCNC(=S)NC(=Nc1nc(C)cc(C)n1)NCc1cccnc1      IC50      9.16 µM (active)
1  COc1ccc(N2CSC3=C(C#N)C(c4cccs4)CC(=O)N3C2)cc1 (centres undefined)      IC50      8.68 µM (active)

Input line: For COc1ccc(OC)c(C2CC(=O)N3CN(c4ccccc4)CSC3=C2C#N)c1 (centres undefined) , write its IC50.
Output line: 6.54 µM (active)

Input line: For N#C/C(=C/c1ccc(OCc2ccc(C(=O)O)cc2)c(Br)c1)c1cccc(F)c1 , write its IC50.
Output line: 13.7 µM (active)
